IC50 values recorded for Epidermal growth factor receptor (Homo sapiens)
quantity: IC50

INSERT INTO results (compound_smiles, value_observed) VALUES
  ('COc1cc2ncnc(Nc3ccc(B(O)O)cc3)c2cc1OC', '> 1000 nM'),
  ('COc1cc2ncnc(Nc3cccc(Cl)c3)c2cc1B(O)O', '460 nM'),
  ('CC1(C)OB(c2ccc3ncnc(Nc4ccc(F)c(Cl)c4)c3c2)OC1(C)C', '570 nM'),
  ('COCCOc1cc2ncnc(Nc3cccc(B(O)O)c3)c2cc1OCCOC', '> 1000 nM'),
  ('OB(O)c1ccc2ncnc(Nc3ccc(F)c(Cl)c3)c2c1', '800 nM'),
  ('COCCOc1cc2ncnc(Nc3ccc(B(O)O)cc3)c2cc1OCCOC', '> 1000 nM');

* * *

target-or-test-system: Epidermal growth factor receptor (Homo sapiens)
assay-protocol: Inhibition of EGFR in human A431 cells assessed as decrease in EGF-induced Akt phosphorylation at 1 uM by immunoblot analysis
Assay type: cell-based
setup-conditions: A-431
Activity calls are given as the source filed them. The rule behind the calls is not given here.
quantity: inhibition

INSERT INTO assay_data (compound_smiles, value_observed) VALUES
  ('COc1cc2ncnc(Nc3cccc(Cl)c3)c2cc1B(O)O', 'Active'),
  ('CC1(C)OB(c2ccc3ncnc(Nc4ccc(F)c(Cl)c4)c3c2)OC1(C)C', 'Active'),
  ('COCCOc1cc2ncnc(Nc3ccc(B(O)O)cc3)c2cc1OC', 'inactive'),
  ('COCCOc1cc2ncnc(Nc3cccc(B(O)O)c3)c2cc1OC', 'inactive'),
  ('OB(O)c1ccc2ncnc(Nc3cccc(Cl)c3)c2c1', 'Active'),
  ('CC1(C)OB(c2ccc3ncnc(Nc4cccc(Cl)c4)c3c2)OC1(C)C', 'Active'),
  ('COc1cc2ncnc(Nc3ccc(B(O)O)cc3)c2cc1OC', 'inactive'),
  ('COc1cc2ncnc(Nc3cccc(B(O)O)c3)c2cc1OC', 'inactive'),
  ('COc1cc2ncnc(Nc3ccc(F)c(Cl)c3)c2cc1B(O)O', 'Active'),
  ('COc1cc2ncnc(Nc3cccc(Cl)c3)c2cc1B1OC(C)(C)C(C)(C)O1', 'Active'),
  ('COc1cc2ncnc(Nc3ccc(F)c(Cl)c3)c2cc1B1OC(C)(C)C(C)(C)O1', 'Active');

* * *

target-or-test-system: UniProtKB P35968
IC50 for assorted compounds
quantity: IC50

INSERT INTO assay_data (compound_smiles, quantity, value_observed) VALUES
  ('COCCOc1cc2ncnc(Nc3ccc(B(O)O)cc3)c2cc1OC', 'IC50', '860 nM'),
  ('COc1cc2ncnc(Nc3ccc(F)c(Cl)c3)c2cc1B1OC(C)(C)C(C)(C)O1', 'IC50', '> 1000 nM'),
  ('CC1(C)OB(c2ccc3ncnc(Nc4ccc(F)c(Cl)c4)c3c2)OC1(C)C', 'IC50', '> 1000 nM'),
  ('COc1cc2ncnc(Nc3cccc(Cl)c3)c2cc1B1OC(C)(C)C(C)(C)O1', 'IC50', '> 1000 nM'),
  ('OB(O)c1ccc2ncnc(Nc3cccc(Cl)c3)c2c1', 'IC50', '> 1000 nM'),
  ('CC1(C)OB(c2ccc3ncnc(Nc4cccc(Cl)c4)c3c2)OC1(C)C', 'IC50', '> 1000 nM'),
  ('COCCOc1cc2ncnc(Nc3cccc(B(O)O)c3)c2cc1OC', 'IC50', '180 nM'),
  ('OB(O)c1ccc2ncnc(Nc3ccc(F)c(Cl)c3)c2c1', 'IC50', '> 1000 nM'),
  ('COc1cc2ncnc(Nc3cccc(B(O)O)c3)c2cc1OC', 'IC50', '390 nM');

* * *

target-or-test-system: Epidermal growth factor receptor (Homo sapiens)
assay-protocol: Inhibition of EGFR in human A431 cells assessed as decrease in EGF-induced ERK phosphorylation at 1 uM by immunoblot analysis
Assay type: cell-based
setup-conditions: A-431
Calls of active or inactive are those of the source. The calls are words filed in the database; no cut-off is given here.
Outcome codes: class 1 = active, class 0 = inactive

INSERT INTO measurements (compound_smiles, cat) VALUES
  ('COc1cc2ncnc(Nc3ccc(F)c(Cl)c3)c2cc1B1OC(C)(C)C(C)(C)O1', 'class 1'),
  ('COCCOc1cc2ncnc(Nc3cccc(B(O)O)c3)c2cc1OC', 'class 0'),
  ('COc1cc2ncnc(Nc3cccc(Cl)c3)c2cc1B1OC(C)(C)C(C)(C)O1', 'class 1'),
  ('OB(O)c1ccc2ncnc(Nc3ccc(F)c(Cl)c3)c2c1', 'class 1'),
  ('CC1(C)OB(c2ccc3ncnc(Nc4cccc(Cl)c4)c3c2)OC1(C)C', 'class 1'),
  ('COCCOc1cc2ncnc(Nc3ccc(B(O)O)cc3)c2cc1OC', 'class 0'),
  ('COc1cc2ncnc(Nc3cccc(B(O)O)c3)c2cc1OC', 'class 0'),
  ('COc1cc2ncnc(Nc3cccc(Cl)c3)c2cc1B(O)O', 'class 1'),
  ('CC1(C)OB(c2ccc3ncnc(Nc4ccc(F)c(Cl)c4)c3c2)OC1(C)C', 'class 1'),
  ('COCCOc1cc2ncnc(Nc3ccc(B(O)O)cc3)c2cc1OCCOC', 'class 0'),
  ('COc1cc2ncnc(Nc3ccc(B(O)O)cc3)c2cc1OC', 'class 0'),
  ('COc1cc2ncnc(Nc3ccc(F)c(Cl)c3)c2cc1B(O)O', 'class 1'),
  ('COCCOc1cc2ncnc(Nc3cccc(B(O)O)c3)c2cc1OCCOC', 'class 0'),
  ('OB(O)c1ccc2ncnc(Nc3cccc(Cl)c3)c2c1', 'class 1');

* * *

target-or-test-system: Epidermal growth factor receptor (Homo sapiens, UniProt P00533)
Sequence (P00533 whole entry): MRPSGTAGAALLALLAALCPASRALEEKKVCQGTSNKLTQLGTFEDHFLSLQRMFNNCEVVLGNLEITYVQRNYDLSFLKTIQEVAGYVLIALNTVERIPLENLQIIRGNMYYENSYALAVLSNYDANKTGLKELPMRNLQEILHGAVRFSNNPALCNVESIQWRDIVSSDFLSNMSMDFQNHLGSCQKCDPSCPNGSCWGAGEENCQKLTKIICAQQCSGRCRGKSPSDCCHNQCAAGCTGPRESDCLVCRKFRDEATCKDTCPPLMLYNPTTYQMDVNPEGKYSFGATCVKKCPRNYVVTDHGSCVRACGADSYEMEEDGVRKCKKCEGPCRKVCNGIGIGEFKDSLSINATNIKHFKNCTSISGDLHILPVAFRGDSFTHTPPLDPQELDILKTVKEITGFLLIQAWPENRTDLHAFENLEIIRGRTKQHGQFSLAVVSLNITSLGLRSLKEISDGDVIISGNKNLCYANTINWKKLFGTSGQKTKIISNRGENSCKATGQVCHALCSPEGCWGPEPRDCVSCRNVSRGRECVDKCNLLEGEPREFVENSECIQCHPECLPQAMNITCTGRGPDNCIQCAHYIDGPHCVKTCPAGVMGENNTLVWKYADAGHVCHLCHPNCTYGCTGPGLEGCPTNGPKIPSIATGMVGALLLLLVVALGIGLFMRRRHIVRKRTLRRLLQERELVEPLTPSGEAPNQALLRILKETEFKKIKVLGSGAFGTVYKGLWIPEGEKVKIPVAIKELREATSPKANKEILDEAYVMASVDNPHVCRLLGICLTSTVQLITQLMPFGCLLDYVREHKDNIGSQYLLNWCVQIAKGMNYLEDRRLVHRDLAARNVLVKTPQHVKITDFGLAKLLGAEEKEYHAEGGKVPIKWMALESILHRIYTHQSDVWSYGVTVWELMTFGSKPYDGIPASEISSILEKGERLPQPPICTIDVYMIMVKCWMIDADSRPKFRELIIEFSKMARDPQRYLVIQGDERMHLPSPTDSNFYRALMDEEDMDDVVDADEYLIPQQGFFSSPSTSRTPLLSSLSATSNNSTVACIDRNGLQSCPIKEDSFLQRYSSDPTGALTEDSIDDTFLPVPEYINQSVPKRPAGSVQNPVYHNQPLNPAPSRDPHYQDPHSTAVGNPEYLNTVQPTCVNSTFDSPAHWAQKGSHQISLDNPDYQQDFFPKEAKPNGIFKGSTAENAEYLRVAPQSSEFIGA
assay-protocol: Inhibition of EGFR in human A431 cells assessed as decrease in EGF-induced Akt phosphorylation at 1 uM by immunoblot analysis
Format: cell-based
setup-conditions: A-431
The source made the active and inactive calls. No cut-off for these calls is given here.
Outcomes: active, inactive

INSERT INTO assay_data (compound_smiles, cat) VALUES
  ('COCCOc1cc2ncnc(Nc3cccc(B(O)O)c3)c2cc1OCCOC', 'inactive'),
  ('OB(O)c1ccc2ncnc(Nc3ccc(F)c(Cl)c3)c2c1', 'active'),
  ('COCCOc1cc2ncnc(Nc3ccc(B(O)O)cc3)c2cc1OCCOC', 'inactive');

* * *

target-or-test-system: Epidermal growth factor receptor (Homo sapiens)
assay-protocol: Inhibition of EGF-induced EGFR autophosphorylation in human A431 cells at 1 uM by immunoblot analysis
Type: cell-based
setup-conditions: A-431
Activity calls are given as the source filed them. No cut-off for these calls is given here.
quantity: inhibition

INSERT INTO assay_data (compound_smiles, value_observed) VALUES
  ('COc1cc2ncnc(Nc3ccc(F)c(Cl)c3)c2cc1B1OC(C)(C)C(C)(C)O1', 'Active'),
  ('OB(O)c1ccc2ncnc(Nc3ccc(F)c(Cl)c3)c2c1', 'Active'),
  ('COCCOc1cc2ncnc(Nc3ccc(B(O)O)cc3)c2cc1OC', 'inactive'),
  ('COc1cc2ncnc(Nc3cccc(Cl)c3)c2cc1B(O)O', 'Active'),
  ('COc1cc2ncnc(Nc3cccc(Cl)c3)c2cc1B1OC(C)(C)C(C)(C)O1', 'Active'),
  ('CC1(C)OB(c2ccc3ncnc(Nc4ccc(F)c(Cl)c4)c3c2)OC1(C)C', 'Active'),
  ('COc1cc2ncnc(Nc3ccc(B(O)O)cc3)c2cc1OC', 'inactive'),
  ('COc1cc2ncnc(Nc3ccc(F)c(Cl)c3)c2cc1B(O)O', 'Active'),
  ('COc1cc2ncnc(Nc3cccc(B(O)O)c3)c2cc1OC', 'inactive'),
  ('COCCOc1cc2ncnc(Nc3cccc(B(O)O)c3)c2cc1OCCOC', 'inactive'),
  ('OB(O)c1ccc2ncnc(Nc3cccc(Cl)c3)c2c1', 'Active');

* * *

target-or-test-system: Epidermal growth factor receptor (Homo sapiens, UniProt P00533)
assay-protocol: Inhibition of EGF-induced EGFR autophosphorylation in human A431 cells at 1 uM by immunoblot analysis
Assay type: cell-based
setup-conditions: A-431
Active and inactive are the calls of the source. The rule behind the calls is not given here.
Classes used: active, inactive

INSERT INTO measurements (compound_smiles, cat) VALUES
  ('CC1(C)OB(c2ccc3ncnc(Nc4cccc(Cl)c4)c3c2)OC1(C)C', 'active'),
  ('COCCOc1cc2ncnc(Nc3cccc(B(O)O)c3)c2cc1OC', 'inactive'),
  ('COCCOc1cc2ncnc(Nc3ccc(B(O)O)cc3)c2cc1OCCOC', 'inactive');

* * *

target-or-test-system: Vascular endothelial growth factor receptor 2 (Homo sapiens)
Sequence (P35968 whole entry): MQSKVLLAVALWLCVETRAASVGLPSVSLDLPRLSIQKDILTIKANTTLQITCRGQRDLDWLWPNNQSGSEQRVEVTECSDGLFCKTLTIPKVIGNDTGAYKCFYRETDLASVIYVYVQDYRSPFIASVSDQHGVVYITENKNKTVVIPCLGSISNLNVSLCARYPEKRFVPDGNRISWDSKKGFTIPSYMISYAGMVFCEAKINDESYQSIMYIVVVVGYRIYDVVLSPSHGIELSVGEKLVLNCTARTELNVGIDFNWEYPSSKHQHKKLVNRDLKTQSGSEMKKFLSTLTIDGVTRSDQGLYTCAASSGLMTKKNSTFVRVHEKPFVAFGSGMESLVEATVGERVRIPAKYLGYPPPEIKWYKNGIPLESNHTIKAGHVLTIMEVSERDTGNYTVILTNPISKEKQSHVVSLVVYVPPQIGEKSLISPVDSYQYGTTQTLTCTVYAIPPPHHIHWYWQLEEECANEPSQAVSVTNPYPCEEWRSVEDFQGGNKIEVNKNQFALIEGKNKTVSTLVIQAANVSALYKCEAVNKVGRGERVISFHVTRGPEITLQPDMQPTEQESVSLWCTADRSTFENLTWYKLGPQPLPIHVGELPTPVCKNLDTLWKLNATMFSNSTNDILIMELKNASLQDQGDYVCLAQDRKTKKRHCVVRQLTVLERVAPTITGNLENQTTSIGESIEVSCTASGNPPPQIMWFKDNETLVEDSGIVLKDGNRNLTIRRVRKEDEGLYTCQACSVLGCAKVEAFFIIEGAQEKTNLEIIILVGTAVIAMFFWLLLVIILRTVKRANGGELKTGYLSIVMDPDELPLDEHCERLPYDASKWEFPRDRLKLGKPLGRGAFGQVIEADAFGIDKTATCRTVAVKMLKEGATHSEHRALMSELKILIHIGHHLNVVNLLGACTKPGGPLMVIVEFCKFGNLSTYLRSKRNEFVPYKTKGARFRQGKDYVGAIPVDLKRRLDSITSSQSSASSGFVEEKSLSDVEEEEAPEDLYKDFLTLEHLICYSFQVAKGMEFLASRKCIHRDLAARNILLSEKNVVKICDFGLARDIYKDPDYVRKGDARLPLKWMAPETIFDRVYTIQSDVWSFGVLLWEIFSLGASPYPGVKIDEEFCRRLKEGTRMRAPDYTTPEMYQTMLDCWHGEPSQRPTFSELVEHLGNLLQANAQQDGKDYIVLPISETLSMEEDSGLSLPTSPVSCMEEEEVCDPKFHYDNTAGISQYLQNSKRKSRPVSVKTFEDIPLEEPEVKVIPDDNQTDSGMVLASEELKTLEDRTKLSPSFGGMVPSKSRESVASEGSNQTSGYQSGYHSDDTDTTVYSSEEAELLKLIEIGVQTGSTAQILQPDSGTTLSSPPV
assay-protocol: Inhibition of VEGF-induced KDR phosphorylation in human HUVEC cells at 1 uM by immunoblot analysis
Type: cell-based
Activity calls are given as the source filed them. The rule behind the calls is not given here.
Outcome codes: active, inactive

INSERT INTO measurements (compound_smiles, cat) VALUES
  ('COCCOc1cc2ncnc(Nc3ccc(B(O)O)cc3)c2cc1OCCOC', 'active'),
  ('COCCOc1cc2ncnc(Nc3cccc(B(O)O)c3)c2cc1OC', 'active'),
  ('COc1cc2ncnc(Nc3cccc(B(O)O)c3)c2cc1OC', 'inactive'),
  ('COCCOc1cc2ncnc(Nc3cccc(B(O)O)c3)c2cc1OCCOC', 'active'),
  ('COc1cc2ncnc(Nc3ccc(B(O)O)cc3)c2cc1OC', 'inactive'),
  ('COCCOc1cc2ncnc(Nc3ccc(B(O)O)cc3)c2cc1OC', 'active');
